For each of the compounds below, state its pKd.
Target: Cdk2(2-298) (Homo sapiens, UniProt P24941)
Construct: Biotinylated N-terminal avi-tagged Cdk2(2-298) or Cdk1(1-297) was immobilized
Assay: Surface Plasmon Resonance (SPR) compound interaction, Biacore 8K
Settings: single-cycle kinetics (SCK, "S"), dissociation 1800 sec, read-out: Activity rating (KD)
pKd: −log10 of the molar value.

Ask | Value lookup for pKd; key = N[C@H]1CC[C@H](Nc2nccc(-c3cnccc3Oc3ccc(NS(=O)(=O)c4ccc(CO)cc4F)cc3F)n2)CC1
Reply | 6.00 to 7.00

Ask | // same read-out, input: CC(C)c1ccc(-c2ccnc(N[C@H]3CC[C@H](N)CC3)n2)c(Oc2ccc(NS(=O)(=O)c3ccccc3Cl)cc2F)c1
Reply | 7.00 to 7.96

Ask | // same read-out, input: N[C@H]1CC[C@H](Nc2nccc(-c3cccnc3Sc3ccc(NS(=O)(=O)c4cccc5ccccc45)cc3F)n2)CC1
Reply | 7.00 to 7.96

Ask | // same read-out, input: N[C@H]1CC[C@H](Nc2nccc(-c3cnccc3Oc3cc(Cl)c(NS(=O)(=O)C4CC4)cc3F)n2)CC1
Reply | 5.30 to 6.00

Ask | // same read-out, input: CN1CCC(Nc2nccc(-c3cnccc3Oc3ccc(NS(=O)(=O)c4ccccc4Cl)cc3F)n2)CC1
Reply | 7.00 to 7.96

Ask | // same read-out, input: N[C@H]1CC[C@H](Nc2nccc(-c3ccccc3Oc3ccc(NS(=O)(=O)c4ccccc4Cl)cc3F)n2)CC1
Reply | 7.00 to 7.96

Ask | // same read-out, input: CC(C)(C)c1ccccc1S(=O)(=O)Nc1ccc(Oc2ccncc2-c2ccnc(N[C@H]3CC[C@H](N)CC3)n2)c(F)c1
Reply | 6.00 to 7.00

----------
Molecular target: Cdk2(2-298) (Homo sapiens, UniProt P24941)
Construct: Biotinylated N-terminal avi-tagged Cdk2(2-298) or Cdk1(1-297) was immobilized
Experiment: Surface Plasmon Resonance (SPR) compound interaction, Biacore 8K
Settings: single-cycle kinetics (SCK, "S"), dissociation 1800 sec, read-out: Activity rating (KD)
pKd: −log10 of the molar value.
For each of the molecules below, state its pKd.

Ask | # value lookup — system Cdk2(2-298) (Homo sapiens, UniProt P24941), readout pKd, item O=S(=O)(Nc1ccc(Oc2ccncc2-c2ccnc(N[C@H]3CCCNC3)n2)cc1F)c1ccccc1Cl
Reply | 7.00 to 7.96

Ask | // same read-out, input: C#Cc1ccccc1S(=O)(=O)Nc1ccc(Oc2ccncc2-c2ccnc(N[C@H]3CC[C@H](N)CC3)n2)c(F)c1
Reply | 7.00 to 7.96

Ask | // same read-out, input: CN(CCNc1nccc(-c2cnccc2Oc2ccc(NS(=O)(=O)c3ccccc3Cl)cc2F)n1)S(C)(=O)=O
Reply | ≥ 8.00

Ask | // same read-out, input: N[C@H]1CC[C@H](Nc2nccc(-c3cnccc3Oc3ccc(NS(=O)(=O)Cc4ccccc4)c(Cl)c3)n2)CC1
Reply | 5.30 to 6.00

Ask | // same read-out, input: N[C@H]1CC[C@H](Nc2nccc(-c3cnccc3Sc3ccc(NS(=O)(=O)c4ccccc4Cl)cc3F)n2)CC1
Reply | ≥ 8.00

Ask | // same read-out, input: N[C@H]1CC[C@H](Nc2nccc(-c3cnccc3Oc3ccc(NS(=O)(=O)c4cccc5nccnc45)cc3F)n2)CC1
Reply | 6.00 to 7.00

Ask | // same read-out, input: N[C@H]1CC[C@H](Nc2nccc(-c3cnccc3Oc3ccc(NS(=O)(=O)c4ccccc4F)cc3F)n2)CC1
Reply | ≥ 8.00

Ask | // same read-out, input: N#Cc1ccccc1S(=O)(=O)Nc1ccc(Oc2ccncc2-c2ccnc(N[C@H]3CC[C@H](N)CC3)n2)c(F)c1
Reply | ≥ 8.00

Ask | // same read-out, input: CN(C)CCNc1nccc(-c2cnccc2Oc2ccc(NS(=O)(=O)c3ccccc3Cl)cc2F)n1
Reply | 6.00 to 7.00

Ask | // same read-out, input: O=S(=O)(Nc1ccc(Oc2ncncc2-c2ccnc(N[C@H]3CCCNC3)n2)c(F)c1)c1ccccc1
Reply | 6.00 to 7.00

Ask | // same read-out, input: N[C@H]1CC[C@H](Nc2nccc(-c3ccc(C4CCCCC4)cc3Oc3ccc(NS(=O)(=O)c4ccccc4Cl)cc3F)n2)CC1
Reply | 7.00 to 7.96

Ask | // same read-out, input: N[C@H]1CC[C@H](Nc2nccc(-c3ccc(C4CC4)cc3Oc3ccc(NS(=O)(=O)c4ccccc4Cl)cc3F)n2)CC1
Reply | 7.00 to 7.96

Ask | // same read-out, input: CCc1ccccc1S(=O)(=O)Nc1ccc(Oc2ccncc2-c2ccnc(N[C@H]3CC[C@H](N)CC3)n2)c(F)c1
Reply | ≥ 8.00

Ask | // same read-out, input: Cc1ccc(-c2ccnc(N[C@H]3CC[C@H](N)CC3)n2)c(Oc2ccc(NS(=O)(=O)c3ccccc3Cl)cc2F)c1
Reply | 7.00 to 7.96

Ask | // same read-out, input: O=S(=O)(Nc1ccc(Oc2ccncc2-c2ccnc(NCCNCCO)n2)c(F)c1)c1ccccc1Cl
Reply | 6.00 to 7.00

Ask | // same read-out, input: N[C@H]1CC[C@H](Nc2nccc(-c3cnccc3Oc3ccc(NS(=O)(=O)c4cc(Cl)c(Br)cc4F)cc3F)n2)CC1
Reply | 7.00 to 7.96

Ask | // same read-out, input: N[C@H]1CC[C@H](Nc2nccc(-c3cnccc3Sc3ccc(NS(=O)(=O)c4ccccc4)cc3F)n2)CC1
Reply | 7.00 to 7.96

Ask | // same read-out, input: O=S(=O)(Nc1ccc(Oc2ccncc2-c2ccnc(NC3COC3)n2)c(F)c1)c1ccccc1Cl [Compound 88]
Reply | ≥ 8.00

Ask | // same read-out, input: O=S(=O)(Nc1ccc(Oc2ncncc2-c2ccnc(N[C@H]3CCCNC3)n2)c(F)c1)c1ccccc1Cl
Reply | 7.00 to 7.96

Ask | // same read-out, input: N[C@H]1CC[C@H](Nc2nccc(-c3cnccc3Oc3ccc(NS(=O)(=O)C4CC4)c(Cl)c3)n2)CC1
Reply | < 5.30

Ask | // same read-out, input: CS(=O)(=O)N1CCC[C@H](Nc2nccc(-c3cnccc3Oc3ccc(NS(=O)(=O)c4ccccc4Cl)cc3F)n2)C1
Reply | 6.00 to 7.00

Ask | // same read-out, input: N[C@H]1CC[C@H](Nc2nccc(-c3cnccc3Oc3ccc(NS(=O)(=O)c4ccccc4)cc3F)n2)CC1
Reply | 7.00 to 7.96

Ask | // same read-out, input: O=S(=O)(Nc1ccc(Oc2ccccc2-c2ccnc(N[C@H]3CCCNC3)n2)c(F)c1)c1ccccc1
Reply | 5.30 to 6.00

Ask | // same read-out, input: CCc1ccc(-c2ccnc(N[C@H]3CC[C@H](N)CC3)n2)c(Oc2ccc(NS(=O)(=O)c3ccccc3Cl)cc2F)c1
Reply | 7.00 to 7.96

Ask | // same read-out, input: N[C@H]1CC[C@H](Nc2nccc(-c3cnccc3Oc3ccc(NS(=O)(=O)c4ccccc4)c(C(F)(F)F)c3)n2)CC1
Reply | 6.00 to 7.00

Ask | // same read-out, input: O=S(=O)(Nc1ccc(Oc2ccncc2-c2ccnc(NCCn3ccnc3)n2)c(F)c1)c1ccccc1Cl
Reply | 7.00 to 7.96

Ask | // same read-out, input: O=S(=O)(Nc1ccc(Sc2ncccc2-c2ccnc(N[C@H]3CCCNC3)n2)c(F)c1)c1ccccc1Cl
Reply | ≥ 8.00

Ask | // same read-out, input: C=Cc1ccccc1S(=O)(=O)Nc1ccc(Oc2ccncc2-c2ccnc(N[C@H]3CC[C@H](N)CC3)n2)c(F)c1
Reply | ≥ 8.00
